Below, each entry is listed alongside its reported EC50.
# study.target: Heat shock protein HSP90 (Homo sapiens, UniProt P07900+P08238)
Remember to follow the number with its unit.

| chemical.smiles | EC50 |
| --- | --- |
| COC1=C2C[C@@H](C)C[C@H](OC)[C@H](O)[C@@H](C)/C=C(\C)[C@H](OC(N)=O)[C@@H](OC)/C=C\C=C(/C)C(=O)NC(=C(NC/C=C/CNC3=C4NC(=O)/C(C)=C/C=C\[C@H](OC)[C@@H](OC(N)=O)/C(C)=C/[C@H](C)[C@@H](O)[C@@H](OC)C[C@H](C)CC(=C(OC)C3=O)C4=O)C1=O)C2=O | 0.045 µM |
| COC1=C2C[C@@H](C)C[C@H](OC)[C@H](O)[C@@H](C)/C=C(\C)[C@H](OC(N)=O)[C@@H](OC)/C=C\C=C(/C)C(=O)NC(=C(NCCCCCCCCCNC3=C4NC(=O)/C(C)=C/C=C\[C@H](OC)[C@@H](OC(N)=O)/C(C)=C/[C@H](C)[C@@H](O)[C@@H](OC)C[C@H](C)CC(=C(OC)C3=O)C4=O)C1=O)C2=O | 0.465 µM |

Value sought: EC50, system Heat shock protein HSP90 (Homo sapiens, UniProt P07900+P08238), item COC1=C2C[C@@H](C)C[C@H](OC)[C@H](O)[C@@H](C)/C=C(\C)[C@H](OC(N)=O)[C@@H](OC)/C=C\C=C(/C)C(=O)NC(=C(NCCCCNC3=C4NC(=O)/C(C)=C/C=C\[C@H](OC)[C@@H](OC(N)=O)/C(C)=C/[C@H](C)[C@@H](O)[C@@H](OC)C[C@H](C)CC(=C(OC)C3=O)C4=O)C1=O)C2=O . Result: 0.091 µM

* * *

# study.target: Heat shock protein HSP90 (Homo sapiens, UniProt P07900+P08238)
quantity.kind: EC50 (nM)
I only need the number, in nM, no unit after it.

Value sought: EC50, system Heat shock protein HSP90 (Homo sapiens, UniProt P07900+P08238), item COC1=C2C[C@@H](C)C[C@H](OC)[C@H](O)[C@@H](C)/C=C(\C)[C@H](OC(N)=O)[C@@H](OC)/C=C\C=C(/C)C(=O)NC(=C(NC/C=C\CNC3=C4NC(=O)/C(C)=C/C=C\[C@H](OC)[C@@H](OC(N)=O)/C(C)=C/[C@H](C)[C@@H](O)[C@@H](OC)C[C@H](C)CC(=C(OC)C3=O)C4=O)C1=O)C2=O . Result: 345
